Answer each item with its documented percent inhibition of viability.
- System: normal primary NK cells, pool 3 (3 donors) (IL-2 2.5 ng/mL);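 note: normalised to DMSO-only wells as negative and benzethonium chloride as positive control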
- Test method notes: percent inhibition of viability; higher = more inhibition
- Settings: 72 h; 1000 nM
Answer with a number only, understood to be in %.

Challenge: Identify the measured percent inhibition of viability of CCN(CC)C(=S)SSC(=S)N(CC)CC [Disulfiram] (max concentration tested 100000 nM) for normal primary NK cells, pool 3 (3 donors) (IL-2 2.5 ng/mL).
Response given: 98.2

Challenge: Identify the measured percent inhibition of viability of CC[C@]1(O)C[C@@H]2CN(CCc3c([nH]c4ccccc34)[C@@](C(=O)OC)(c3cc4c(cc3OC)N(C)[C@H]3[C@@](O)(C(=O)OC)[C@H](OC(C)=O)[C@]5(CC)C=CCN6CC[C@]43[C@@H]65)C2)C1 [Vinblastine] (max concentration tested 1000 nM) for normal primary NK cells, pool 3 (3 donors) (IL-2 2.5 ng/mL).
Response given: 13.7

Challenge: Identify the measured percent inhibition of viability of CCS(=O)(=O)c1cccc(-c2cc(C(=O)NC3CCN(C)CC3)c(C)c3[nH]c4ncc(C)cc4c23)c1 [TAK-901] (max concentration tested 1000 nM) for normal primary NK cells, pool 3 (3 donors) (IL-2 2.5 ng/mL).
Response given: 8.18

Challenge: Identify the measured percent inhibition of viability of CN1CC[C@H](c2c(O)cc(O)c3c(=O)cc(-c4ccccc4Cl)oc23)[C@H](O)C1 [Alvocidib] (max concentration tested 10000 nM) for normal primary NK cells, pool 3 (3 donors) (IL-2 2.5 ng/mL).
Response given: 97.3

Challenge: Identify the measured percent inhibition of viability of Cc1cc(C(=O)NOCCO)c(Nc2ccc(I)cc2F)n(C)c1=O [AZD-8330] (max concentration tested 10000 nM) for normal primary NK cells, pool 3 (3 donors) (IL-2 2.5 ng/mL).
Response given: 3.69

Challenge: Identify the measured percent inhibition of viability of CNC(=O)c1cc(Oc2ccc(NC(=O)Nc3cc(C(C)(C)C)nn3-c3ccc4ncccc4c3)c(F)c2)ccn1 [Rebastinib] (max concentration tested 1000 nM) for normal primary NK cells, pool 3 (3 donors) (IL-2 2.5 ng/mL).
Response given: -8.81

Challenge: Identify the measured percent inhibition of viability of COc1cccc2c1C(=O)c1c(O)c3c(c(O)c1C2=O)C[C@@](O)(C(C)=O)C[C@@H]3O[C@H]1C[C@H](N)[C@H](O)[C@H](C)O1 [Daunorubicin] (max concentration tested 1000 nM) for normal primary NK cells, pool 3 (3 donors) (IL-2 2.5 ng/mL).
Response given: 99.9

Challenge: Identify the measured percent inhibition of viability of COc1cc2c(Nc3ccc(Cl)c(Cl)c3F)ncnc2cc1OC[C@@H]1C[C@@H]2CN(C)C[C@@H]2C1 [XL-647] (max concentration tested 1000 nM) for normal primary NK cells, pool 3 (3 donors) (IL-2 2.5 ng/mL).
Response given: 21.1

Challenge: Identify the measured percent inhibition of viability of O=C(O)c1ccc(O)c2ncccc12 [IOX-1] (max concentration tested 100000 nM) for normal primary NK cells, pool 3 (3 donors) (IL-2 2.5 ng/mL).
Response given: -5.18
